# Tested on: PC3 cells
# assay_remarks: MTT cell viability, PC3
# Type: cell-based
# measurement_setup: Homo sapiens, PC-3; PC3, Prostate; MTT at 24 hours; Table 3
Hi! Could you tag entries with IC50 below 3 µM as true (1), and those at or above as false (0)? Much appreciated.

O=C(c1ccccc1)c1cc2c(s1)C(=O)c1ccccc1C2=O; false (0)
CC(=O)c1cc2c(o1)C(=O)c1ccccc1C2=O; true (1)
CC(=O)c1cc2c(o1)C(=O)c1cc(Cl)ccc1C2=O; false (0)
O=C(c1ccccc1)c1cc2c(o1)C(=O)c1ccccc1C2=O; false (0)

---

# target_entity: Stat3 DNA-binding activity (Homo sapiens, UniProt P40763)
# Construct: endogenous in cells; host or cells: HeLa cells (nuclear extract)
# Sequence (P40763 whole entry): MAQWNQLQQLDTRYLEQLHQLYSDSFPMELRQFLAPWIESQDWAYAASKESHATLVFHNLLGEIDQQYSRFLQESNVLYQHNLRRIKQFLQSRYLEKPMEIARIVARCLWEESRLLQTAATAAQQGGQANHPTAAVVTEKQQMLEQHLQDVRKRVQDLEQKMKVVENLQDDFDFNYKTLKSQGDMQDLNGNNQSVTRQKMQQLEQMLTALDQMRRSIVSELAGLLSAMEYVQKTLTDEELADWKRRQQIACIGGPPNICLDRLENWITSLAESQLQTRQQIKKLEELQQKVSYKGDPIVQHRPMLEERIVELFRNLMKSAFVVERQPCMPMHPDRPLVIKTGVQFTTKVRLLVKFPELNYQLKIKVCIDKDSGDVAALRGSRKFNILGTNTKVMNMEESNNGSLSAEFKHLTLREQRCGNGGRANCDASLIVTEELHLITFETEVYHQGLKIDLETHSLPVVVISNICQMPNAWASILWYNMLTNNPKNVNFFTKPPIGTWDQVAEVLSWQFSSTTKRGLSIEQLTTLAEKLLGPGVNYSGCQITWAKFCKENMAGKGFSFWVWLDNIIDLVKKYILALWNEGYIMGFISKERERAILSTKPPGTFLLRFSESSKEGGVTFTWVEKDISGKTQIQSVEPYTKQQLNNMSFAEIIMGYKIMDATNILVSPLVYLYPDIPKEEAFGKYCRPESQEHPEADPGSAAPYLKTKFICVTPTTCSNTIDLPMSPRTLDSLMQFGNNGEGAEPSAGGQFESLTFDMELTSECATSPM
# assay_remarks: Stat3 DNA binding assay (EMSA), HeLa nuclear extract
# Assay type: biochemical
# measurement_setup: compound at 1 × MTT IC50, untreated Stat3 retarded band set as 100
measured_attribute: inhibition % 1 × MTT IC50 (%)

CCc1cc2c(o1)C(=O)c1cc(F)ccc1C2=O [Compound 106]; 26
C=Cc1cc2c(o1)C(=O)c1cc(F)ccc1C2=O [Compound 202]; 50
CC(O)c1cc2c(o1)C(=O)c1ccccc1C2=O (stereo not drawn) [Compound 301]; 20
O=C(c1ccccc1)c1cc2c(s1)C(=O)c1ccccc1C2=O [Compound 402]; 29
O=C1c2ccccc2C(=O)c2oc(C(O)c3ccccc3)cc21 (stereo not drawn) [Compound 302]; 6
CC(O)c1cc2c(o1)C(=O)c1cc(F)ccc1C2=O (stereo not drawn) [Compound 304]; 25
CC(=O)c1oc2c(c1CBr)C(=O)c1ccccc1C2=O [Compound 420]; 47
CC(=O)c1cc2c(o1)C(=O)c1cc(F)ccc1C2=O [Compound 418]; 39
O=C1c2ccccc2C(=O)c2oc(Cc3ccccc3)cc21 [Compound 103]; 98

Data provenance: patent US10851075B2
